Entries and their measured IC50 follow.
system: BaF3; assay: Cytotoxicity against mouse BaF3 cells expressing EGFR L858R/T790M/C797S mutant assessed as reduction in cell viability measured after 72 hrs by cell titre glo luminescence assay; type: functional, cell-based; conditions: BaF3, 72 h
Reported Metric: IC50 (µM)

# Molecule, Tested Target, Reported Metric, Test Result
measured = [
    ("Cc1c(C#Cc2ccc(CN3CCC(CO)CC3)cc2)cc(C(F)F)c2cn(C(C(=O)Nc3nccs3)c3ncn4c3CCC4)nc12 (configuration not stated)", "BaF3", "IC50", 0.001),
    ("O=C(Nc1nccs1)C(c1ncn2c1CCC2)N1Cc2ccc(C#Cc3ccc(CN4CCCCC4)cc3)cc2C1=O (configuration not stated)", "BaF3", "IC50", 0.017),
    ("O=C(Nc1nccs1)C(c1ncn2c1CCC2)N1Cc2c(cc(C#Cc3ccc(CN4CCC(CO)CC4)cc3)cc2C(F)F)C1=O (configuration not stated)", "BaF3", "IC50", 0.001),
    ("O=C(Nc1nccs1)C(c1ncn2c1CCC2)N1Cc2c(F)cc(C#Cc3ccc(CN4CCC(CO)CC4)cc3)cc2C1=O (configuration not stated)", "BaF3", "IC50", 0.001),
    ("O=C(Nc1nccs1)C(c1ncn2c1C[C@@H](F)C2)n1cc2c(Cl)cc(-c3ccc(N4CCN(C5CC5)CC4)cc3)c(Cl)c2n1 (mixture of isomers)", "BaF3", "IC50", 0.023),
    ("CCN1CCN(c2ccc(-c3cc(F)c4cn(C(C(=O)Nc5nccs5)c5ncn6c5CCC6)nc4c3)cc2)CC1 (configuration not stated)", "BaF3", "IC50", 0.013),
    ("CCN1CCN(c2ccc(-c3cc(Cl)c4cn(C(C(=O)Nc5nccs5)c5ncn6c5CCC6)nc4c3Cl)cc2)CC1 (configuration not stated)", "BaF3", "IC50", 0.013),
]
